assay.explanation: Half life in Wistar rat at 3 mg/kg, iv and 10 mg/kg, po
Format: ADME, organism-based
run.parameters: in vivo
endpoint.name: half-life (min)
The answer is to be given in min; state only the numeric part.

Please indicate half-life recorded for Cc1cncc(NC(=O)c2cc(NC(=O)c3cccc(C(C)(C)C#N)c3)ccc2C)c1
48

Please indicate half-life recorded for Cc1ccc(NC(=O)c2cc(NC(=O)c3cccc(C(C)(C)C#N)c3)ccc2C)cn1
48

Please indicate half-life recorded for Cc1ccc(NC(=O)c2cccc(C(C)(C)C#N)c2)cc1C(=O)Nc1cccnc1
96

Please indicate half-life recorded for COc1cncc(NC(=O)c2cc(NC(=O)c3cccc(C(C)(C)C#N)c3)ccc2C)c1
30

Please indicate half-life recorded for Cc1ccc(NC(=O)c2cccc(C(C)(C)C#N)c2)cc1C(=O)Nc1cnc(N)c(Cl)c1
60

Please indicate half-life recorded for Nc1ncc(NC(=O)c2cc(NC(=O)c3cccc(C(F)(F)F)c3)ccc2Cl)cc1Cl
84

Please indicate half-life recorded for Cc1ccc(NC(=O)c2cccc(C(C)(C)C#N)c2)cc1C(=O)Nc1ccc(N)nc1
36

Please indicate half-life recorded for CC(=O)Nc1ccc(NC(=O)c2cc(NC(=O)c3cccc(C(C)(C)C#N)c3)ccc2C)cn1
42

Please indicate half-life recorded for Cc1ccc(NC(=O)c2cccc(C(C)(C)C#N)c2)cc1C(=O)Nc1cncc(Cl)c1
54

Please indicate half-life recorded for CNc1ccc(NC(=O)c2cc(NC(=O)c3cccc(C(C)(C)C#N)c3)ccc2C)cn1
36

Please indicate half-life recorded for Cc1ccc(NC(=O)c2cccc(C(F)(F)F)c2)cc1C(=O)Nc1cnc(N)c(Cl)c1
96

###

Could you please report measured Vd for the items listed next?
assay.explanation: Volume of distribution at steady state in Wistar rat at 3 mg/kg, iv and 10 mg/kg, po
Format: ADME, organism-based
run.parameters: in vivo, read-out: Vdss
The answer is to be given in L/kg; state only the numeric part.

Please indicate Vd recorded for CC(=O)Nc1ccc(NC(=O)c2cc(NC(=O)c3cccc(C(C)(C)C#N)c3)ccc2C)cn1
2.7

Please indicate Vd recorded for Cc1ccc(NC(=O)c2cc(NC(=O)c3cccc(C(C)(C)C#N)c3)ccc2C)cn1
2.9

Please indicate Vd recorded for Cc1ccc(NC(=O)c2cccc(C(C)(C)C#N)c2)cc1C(=O)Nc1ccc(N)nc1
2.3

Please indicate Vd recorded for Nc1ncc(NC(=O)c2cc(NC(=O)c3cccc(C(F)(F)F)c3)ccc2Cl)cc1Cl
1.2

Please indicate Vd recorded for Cc1cncc(NC(=O)c2cc(NC(=O)c3cccc(C(C)(C)C#N)c3)ccc2C)c1
1.4

Please indicate Vd recorded for Cc1ccc(NC(=O)c2cccc(C(F)(F)F)c2)cc1C(=O)Nc1cnc(N)c(Cl)c1
1

Please indicate Vd recorded for Cc1ccc(NC(=O)c2cccc(C(C)(C)C#N)c2)cc1C(=O)Nc1cncc(Cl)c1
3.1

Please indicate Vd recorded for Cc1ccc(NC(=O)c2cccc(C(C)(C)C#N)c2)cc1C(=O)Nc1cnc(N)c(Cl)c1
0.8

Please indicate Vd recorded for CNc1ccc(NC(=O)c2cc(NC(=O)c3cccc(C(C)(C)C#N)c3)ccc2C)cn1
1.7

Please indicate Vd recorded for Cc1ccc(NC(=O)c2cccc(C(C)(C)C#N)c2)cc1C(=O)Nc1cccnc1
2.5

Please indicate Vd recorded for COc1cncc(NC(=O)c2cc(NC(=O)c3cccc(C(C)(C)C#N)c3)ccc2C)c1
1.7

###

assay.explanation: Bioavailability in Wistar rat at 3 mg/kg, iv and 10 mg/kg, po
Assay type: ADME, organism-based
run.parameters: in vivo
endpoint.name: bioavailability (%)
The answer is to be given in %; state only the numeric part.

Please indicate bioavailability recorded for CNc1ccc(NC(=O)c2cc(NC(=O)c3cccc(C(C)(C)C#N)c3)ccc2C)cn1
15

Please indicate bioavailability recorded for Cc1ccc(NC(=O)c2cccc(C(C)(C)C#N)c2)cc1C(=O)Nc1cccnc1
17

Please indicate bioavailability recorded for Cc1ccc(NC(=O)c2cccc(C(C)(C)C#N)c2)cc1C(=O)Nc1cnc(N)c(Cl)c1
30

Please indicate bioavailability recorded for Cc1ccc(NC(=O)c2cc(NC(=O)c3cccc(C(C)(C)C#N)c3)ccc2C)cn1
73

Please indicate bioavailability recorded for CC(=O)Nc1ccc(NC(=O)c2cc(NC(=O)c3cccc(C(C)(C)C#N)c3)ccc2C)cn1
10

Please indicate bioavailability recorded for Cc1cncc(NC(=O)c2cc(NC(=O)c3cccc(C(C)(C)C#N)c3)ccc2C)c1
4

Please indicate bioavailability recorded for Nc1ncc(NC(=O)c2cc(NC(=O)c3cccc(C(F)(F)F)c3)ccc2Cl)cc1Cl
96

Please indicate bioavailability recorded for Cc1ccc(NC(=O)c2cccc(C(C)(C)C#N)c2)cc1C(=O)Nc1cncc(Cl)c1
45

Please indicate bioavailability recorded for Cc1ccc(NC(=O)c2cccc(C(F)(F)F)c2)cc1C(=O)Nc1cnc(N)c(Cl)c1
78

###

assay.explanation: Clearance in Wistar rat at 3 mg/kg, iv and 10 mg/kg, po
Type: ADME, organism-based
run.parameters: in vivo
Could you please report measured clearance for the items listed next?
The answer is to be given in mL/min/kg; state only the numeric part.

Please indicate clearance recorded for Cc1ccc(NC(=O)c2cccc(C(F)(F)F)c2)cc1C(=O)Nc1cnc(N)c(Cl)c1
8

Please indicate clearance recorded for Nc1ncc(NC(=O)c2cc(NC(=O)c3cccc(C(F)(F)F)c3)ccc2Cl)cc1Cl
11

Please indicate clearance recorded for Cc1ccc(NC(=O)c2cccc(C(C)(C)C#N)c2)cc1C(=O)Nc1cnc(N)c(Cl)c1
9.5

Please indicate clearance recorded for CC(=O)Nc1ccc(NC(=O)c2cc(NC(=O)c3cccc(C(C)(C)C#N)c3)ccc2C)cn1
64

Please indicate clearance recorded for COc1cncc(NC(=O)c2cc(NC(=O)c3cccc(C(C)(C)C#N)c3)ccc2C)c1
56

Please indicate clearance recorded for CNc1ccc(NC(=O)c2cc(NC(=O)c3cccc(C(C)(C)C#N)c3)ccc2C)cn1
53.5

Please indicate clearance recorded for Cc1cncc(NC(=O)c2cc(NC(=O)c3cccc(C(C)(C)C#N)c3)ccc2C)c1
32.5

Please indicate clearance recorded for Cc1ccc(NC(=O)c2cccc(C(C)(C)C#N)c2)cc1C(=O)Nc1cncc(Cl)c1
60

Please indicate clearance recorded for Cc1ccc(NC(=O)c2cccc(C(C)(C)C#N)c2)cc1C(=O)Nc1cccnc1
42.5

Please indicate clearance recorded for Cc1ccc(NC(=O)c2cc(NC(=O)c3cccc(C(C)(C)C#N)c3)ccc2C)cn1
47.5

Please indicate clearance recorded for Cc1ccc(NC(=O)c2cccc(C(C)(C)C#N)c2)cc1C(=O)Nc1ccc(N)nc1
75.5
